Test system: SW-620
Assay: NCI tumour cell line growth inhibition, 48 h
The source made the active and inactive calls. No stated cut-off is given here; in the data, active = GI50 up to about 1.1 µM and inactive = higher.
# GI50 listing for each entry below

# molecule, measured.target, GI50
records = [
    ("O=C(O/N=C1/CCC/C1=C\\c1ccccc1)c1ccc([N+](=O)[O-])cc1", "SW-620", "> 100 µM (inactive)"),
    ("C/C=C/COc1cc(NC(=S)OC(C)C)ccc1Cl.C/C=C\\COc1cc(NC(=S)OC(C)C)ccc1Cl", "SW-620", "17.1 µM (inactive)"),
    ("N#C/C=C1\\C=CC(O)C(O)C1OC1OC(CO)C(O)C(O)C1O (stereo not drawn)", "SW-620", "> 100 µM (inactive)"),
]
